Numbers sourced from patent US11787850B2.

- Measurement notes: Size-exclusion chromatography on Superdex Peptide 10/300GL column
- Assay type: physicochemical
- Measurement setup: peptide in PBS, Superdex Peptide 10/300GL, 0.6 ml/min
Measured property: formation of aggregates by size-exclusion chromatography

A selection of reference data follows.
{"columns": ["Item sequence", "Reading"],
 "data": [
  ["ETWIWLDTNMGSRIYQEFEVTVPDSITS (Peptide X-1)", "formed aggregates"],
  ["ETWIWLDTNMGSRIYQ [Peptide P16]", "did not"],
  ["LDTNMGSRIYQEFEVT [Peptide X-3]", "formed aggregates"],
  ["LGSSPHVRKHFPETWIWLDTNMGSRIYQEFEVTVPDSITS (Peptide X)", "formed aggregates"],
  ["ETWIWLDTNMGSRIYQEFEVT [Peptide P21]", "did not"]
]}

Enquiry: State the recorded formation of aggregates by size-exclusion chromatography for this entry: WINMDTGQLIEQRYTS [Peptide P16-2, reference compound]
Return: did not

Enquiry: Entry ETWIWLDTNMG [Peptide P11] : reported formation of aggregates by size-exclusion chromatography = ?
Return: did not

Enquiry: State the recorded formation of aggregates by size-exclusion chromatography for this entry: GSRIYQEFEVT [Peptide X-4]
Return: did not
